Reference source: patent US20260069689A1

assay-system: SARS-COV-2 RBD extracellular domain expressed with a C-terminal myc-myc-hexahistidine tag (SARS-CoV-2)
measurement-protocol: SPR (Biacore), mAb captured by anti-human Fc, RBD-mmH in solution, 25 C
Would you kindly list koff for each of these binders?
API: value field is a number in s⁻¹; no unit string.

Reported koff, binder mAb14256 (antibody, V domains shown) VH: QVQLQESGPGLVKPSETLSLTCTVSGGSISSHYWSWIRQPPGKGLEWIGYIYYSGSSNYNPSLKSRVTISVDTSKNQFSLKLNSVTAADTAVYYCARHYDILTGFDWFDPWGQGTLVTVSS VL: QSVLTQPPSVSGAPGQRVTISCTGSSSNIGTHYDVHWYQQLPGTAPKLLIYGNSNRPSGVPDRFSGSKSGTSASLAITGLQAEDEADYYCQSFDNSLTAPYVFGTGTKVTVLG : ____ 0.00927

Reported koff, binder mAb14247 (antibody, V domains shown) VH: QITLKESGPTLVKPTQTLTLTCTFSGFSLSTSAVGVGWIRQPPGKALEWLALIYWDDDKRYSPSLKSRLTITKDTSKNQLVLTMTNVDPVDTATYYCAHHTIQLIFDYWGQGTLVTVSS VL: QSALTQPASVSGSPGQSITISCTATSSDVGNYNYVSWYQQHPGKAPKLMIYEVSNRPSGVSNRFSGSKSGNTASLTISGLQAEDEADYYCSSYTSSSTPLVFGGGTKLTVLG : ____ 0.00163
